# Target entity: mouse METAP1(1-79) (mouse, UniProt Q8BP48 1-79)
# Sequence (Q8BP48 1-79): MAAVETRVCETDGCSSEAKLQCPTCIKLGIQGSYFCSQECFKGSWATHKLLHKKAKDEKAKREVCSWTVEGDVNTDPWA
# Run description: other fluorescence titration
Quantity kind: Kd

**Query** What value of Kd has been reported for the following binder? Ac-EEDPAEEDCPELVPIETTQSE-NH2 [human ZNG1 N-terminal peptide, synthetic]
**Result** ~100 nM

**Query** What value of Kd has been reported for the following binder? Ac-MEDEDECPELVPIKEKPSG-NH2 [zebrafish Zng1 N-terminal peptide, synthetic]
**Result** ~100 nM
